// provenance: ChEMBL document CHEMBL1128565

# experimental-system: Cathepsin B (Homo sapiens) (UniProt P07858)
# assay-explanation: Inhibition of Cathepsin B at pH 6.5 and 25 degrees Centigrade.

# smiles-text, result-modifier, K obs / 1 [M⁻¹ s⁻¹]
records = [
    ("CC(C)C[C@@H](NC(=O)OCc1ccccc1)C(=O)N[C@@H](Cc1ccccc1)C(=O)COP(=O)(c1ccccc1)c1ccccc1", "<", 500),
    ("CC(C)[C@@H](NC(=O)OCc1ccccc1)C(=O)N[C@@H](CC(=O)O)C(=O)COP(=O)(c1ccccc1)c1ccccc1", "<", 500),
    ("C[C@H](NC(=O)[C@@H](Cc1ccccc1)NC(=O)OCc1ccccc1)C(=O)COc1cc(C(F)(F)F)nn1-c1ccccc1", "=", 2300),
    ("CC(C)[C@@H](NC(=O)OCc1ccccc1)C(=O)N[C@@H](CC(=O)O)C(=O)COc1cc(C(F)(F)F)nn1-c1ccccc1", "<", 500),
    ("C[C@H](NC(=O)[C@@H](Cc1ccccc1)NC(=O)OCc1ccccc1)C(=O)COP(=O)(c1ccccc1)c1ccccc1", "=", 400000),
    ("CC(C)C[C@@H](NC(=O)OCc1ccccc1)C(=O)N[C@@H](Cc1ccccc1)C(=O)COc1cc(C(F)(F)F)nn1-c1ccccc1", "<", 500),
    ("CC(C)[C@H](NC(=O)OCc1ccccc1)C(=O)N[C@@H](C)C(=O)N[C@@H](CC(=O)O)C(=O)COP(=O)(c1ccccc1)c1ccccc1", "=", 1700),
]

====

Below, each of the molecules is paired with its reported K obs / 1 value.
# experimental-system: Calpain-1 catalytic subunit (Homo sapiens)
# assay-explanation: Inhibition of Human erythrocyte calpain 1 using a continuous assay at pH 7.5 and 8 degrees Centigrade
property-label: K obs / 1 (M⁻¹ s⁻¹)

# smiles-text, property-label, units, data-value
rows = [
    ("C[C@H](NC(=O)[C@@H](Cc1ccccc1)NC(=O)OCc1ccccc1)C(=O)COC(=O)c1c(Cl)cccc1Cl", "K obs / 1", "M⁻¹ s⁻¹", 300),
    ("CC(C)C[C@@H](NC(=O)OCc1ccccc1)C(=O)N[C@@H](Cc1ccccc1)C(=O)COP(=O)(c1ccccc1)c1ccccc1", "K obs / 1", "M⁻¹ s⁻¹", 10000),
    ("CC(C)C[C@@H](NC(=O)[C@@H](C)NC(=O)OCc1ccccc1)C(=O)N[C@H](Cc1ccccc1)C(=O)COC(=O)c1c(F)ccc(OCCN2CCOCC2)c1F", "K obs / 1", "M⁻¹ s⁻¹", 32000),
    ("CC(C)C[C@@H](NC(=O)[C@@H](C)NC(=O)OCc1ccccc1)C(=O)N[C@H](Cc1ccccc1)C(=O)COC(=O)c1c(F)cccc1F", "K obs / 1", "M⁻¹ s⁻¹", 31000),
]

====

# experimental-system: Caspase-1 (Homo sapiens) (UniProt P29466)
# Sequence (P29466 120-297 limits assumed): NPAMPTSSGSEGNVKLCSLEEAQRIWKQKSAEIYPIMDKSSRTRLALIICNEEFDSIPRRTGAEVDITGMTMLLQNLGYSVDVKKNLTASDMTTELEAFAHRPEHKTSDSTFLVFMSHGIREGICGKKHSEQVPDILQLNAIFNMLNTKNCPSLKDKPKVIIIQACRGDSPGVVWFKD
# Sequence (P29466 317-404 limits assumed): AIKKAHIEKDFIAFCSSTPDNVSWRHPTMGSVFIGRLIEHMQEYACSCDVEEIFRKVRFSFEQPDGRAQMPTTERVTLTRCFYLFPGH
# assay-explanation: Inhibition of interleukin-1-beta converting enzyme at pH 7.4, 37 degree C
Rule: measured K obs / 1 below 20000 M⁻¹ s⁻¹ gets 1; anything equal to or greater than 20000 M⁻¹ s⁻¹ gets -1.

# compound, experimental-system, category
data = [
    ("CC(C)C[C@@H](NC(=O)OCc1ccccc1)C(=O)N[C@@H](Cc1ccccc1)C(=O)COP(=O)(c1ccccc1)c1ccccc1", "Caspase-1 (Homo sapiens) (UniProt P29466)", 1),
    ("C[C@H](NC(=O)[C@@H](Cc1ccccc1)NC(=O)OCc1ccccc1)C(=O)COP(=O)(c1ccccc1)c1ccccc1", "Caspase-1 (Homo sapiens) (UniProt P29466)", 1),
    ("O=C(O)C[C@H](NC(=O)OCc1ccccc1)C(=O)COP(=O)(c1ccccc1)c1ccccc1", "Caspase-1 (Homo sapiens) (UniProt P29466)", 1),
    ("CC(C)[C@@H](NC(=O)OCc1ccccc1)C(=O)N[C@@H](CC(=O)O)C(=O)CO[PH](=O)c1ccccc1 (some centres not stated)", "Caspase-1 (Homo sapiens) (UniProt P29466)", 1),
    ("CC(C)[C@@H](NC(=O)OCc1ccccc1)C(=O)N[C@@H](CC(=O)O)C(=O)COP(C)(C)=O", "Caspase-1 (Homo sapiens) (UniProt P29466)", 1),
    ("C[C@H](NC(=O)[C@@H](Cc1ccccc1)NC(=O)OCc1ccccc1)C(=O)COC(=O)c1c(Cl)cccc1Cl", "Caspase-1 (Homo sapiens) (UniProt P29466)", 1),
    ("CC(C)[C@@H](NC(=O)OCc1ccccc1)C(=O)N[C@@H](CC(=O)O)C(=O)COP(=O)(c1ccccc1)c1ccccc1", "Caspase-1 (Homo sapiens) (UniProt P29466)", -1),
    ("CC(C)[C@@H](NC(=O)OCc1ccccc1)C(=O)N[C@@H](CC(=O)O)C(=O)COC(=O)c1c(Cl)cccc1Cl", "Caspase-1 (Homo sapiens) (UniProt P29466)", -1),
    ("CC(C)[C@@H](NC(=O)OCc1ccccc1)C(=O)N[C@@H](CC(=O)O)C(=O)COP(=O)(c1ccc(Cl)cc1)c1ccc(Cl)cc1", "Caspase-1 (Homo sapiens) (UniProt P29466)", -1),
    ("C[C@H](NC(=O)[C@@H](Cc1ccccc1)NC(=O)OCc1ccccc1)C(=O)COc1cc(C(F)(F)F)nn1-c1ccccc1", "Caspase-1 (Homo sapiens) (UniProt P29466)", 1),
    ("CC(C)[C@H](NC(=O)OCc1ccccc1)C(=O)N[C@@H](C)C(=O)N[C@@H](CC(=O)O)C(=O)COP(=O)(c1ccc(Cl)cc1)c1ccc(Cl)cc1", "Caspase-1 (Homo sapiens) (UniProt P29466)", -1),
]
